- target_desc: Ribosomal protein S6 kinase alpha-1 (Homo sapiens)
- condition_details: at 1 µM
What residual activity was measured for each of the following?
Quick reminder: number only, in %, skip the unit.

Log: Ribosomal protein S6 kinase alpha-1 (Homo sapiens), molecule "COc1ccc(CNC(=O)Nc2ncc([N+](=O)[O-])s2)cc1" , residual activity = 136

Log: Ribosomal protein S6 kinase alpha-1 (Homo sapiens), molecule "NC(=O)Nc1sc(-c2ccc(F)cc2)cc1C(N)=O" , residual activity = 85

Log: Ribosomal protein S6 kinase alpha-1 (Homo sapiens), molecule "COc1ccc2c(c1)c(C1=C(c3c[nH]c4ccccc34)C(=O)NC1=O)cn2CCCN(C)C" , residual activity = 6

Log: Ribosomal protein S6 kinase alpha-1 (Homo sapiens), molecule "O=C1NC(=O)C(c2c[nH]c3ccccc23)=C1c1c[nH]c2ccccc12" , residual activity = 22

Log: Ribosomal protein S6 kinase alpha-1 (Homo sapiens), molecule "CN(C)S(=O)(=O)c1ccc2c(c1)/C(=C/c1cc3c([nH]1)CCCC3)C(=O)N2" , residual activity = 95

Log: Ribosomal protein S6 kinase alpha-1 (Homo sapiens), molecule CSc1nc(-c2ccc(F)cc2)c(-c2ccnc(NC(C)c3ccccc3)c2)[nH]1 (stereo not given) , residual activity = 82

Log: Ribosomal protein S6 kinase alpha-1 (Homo sapiens), molecule "Cc1cc(C)c(/C=C2\C(=O)Nc3ccccc32)[nH]1" , residual activity = 51

Log: Ribosomal protein S6 kinase alpha-1 (Homo sapiens), molecule "CCCC(=O)Oc1ccc2[nH]c(C(=O)c3cc4ccccc4[nH]3)cc2c1" , residual activity = 129

Log: Ribosomal protein S6 kinase alpha-1 (Homo sapiens), molecule "O=C(CCCc1ccc(-c2ccccc2F)cc1)Nc1ccc(O)cc1" , residual activity = 90

Log: Ribosomal protein S6 kinase alpha-1 (Homo sapiens), molecule "O=c1cc(N2CCOCC2)oc2c(-c3ccccc3)cccc12" , residual activity = 138

---

What residual activity was measured for each of the following?
- target_desc: Mitogen-activated protein kinase kinase kinase 9 (Homo sapiens) (UniProt P80192)
- Sequence (P80192 whole entry, looked up): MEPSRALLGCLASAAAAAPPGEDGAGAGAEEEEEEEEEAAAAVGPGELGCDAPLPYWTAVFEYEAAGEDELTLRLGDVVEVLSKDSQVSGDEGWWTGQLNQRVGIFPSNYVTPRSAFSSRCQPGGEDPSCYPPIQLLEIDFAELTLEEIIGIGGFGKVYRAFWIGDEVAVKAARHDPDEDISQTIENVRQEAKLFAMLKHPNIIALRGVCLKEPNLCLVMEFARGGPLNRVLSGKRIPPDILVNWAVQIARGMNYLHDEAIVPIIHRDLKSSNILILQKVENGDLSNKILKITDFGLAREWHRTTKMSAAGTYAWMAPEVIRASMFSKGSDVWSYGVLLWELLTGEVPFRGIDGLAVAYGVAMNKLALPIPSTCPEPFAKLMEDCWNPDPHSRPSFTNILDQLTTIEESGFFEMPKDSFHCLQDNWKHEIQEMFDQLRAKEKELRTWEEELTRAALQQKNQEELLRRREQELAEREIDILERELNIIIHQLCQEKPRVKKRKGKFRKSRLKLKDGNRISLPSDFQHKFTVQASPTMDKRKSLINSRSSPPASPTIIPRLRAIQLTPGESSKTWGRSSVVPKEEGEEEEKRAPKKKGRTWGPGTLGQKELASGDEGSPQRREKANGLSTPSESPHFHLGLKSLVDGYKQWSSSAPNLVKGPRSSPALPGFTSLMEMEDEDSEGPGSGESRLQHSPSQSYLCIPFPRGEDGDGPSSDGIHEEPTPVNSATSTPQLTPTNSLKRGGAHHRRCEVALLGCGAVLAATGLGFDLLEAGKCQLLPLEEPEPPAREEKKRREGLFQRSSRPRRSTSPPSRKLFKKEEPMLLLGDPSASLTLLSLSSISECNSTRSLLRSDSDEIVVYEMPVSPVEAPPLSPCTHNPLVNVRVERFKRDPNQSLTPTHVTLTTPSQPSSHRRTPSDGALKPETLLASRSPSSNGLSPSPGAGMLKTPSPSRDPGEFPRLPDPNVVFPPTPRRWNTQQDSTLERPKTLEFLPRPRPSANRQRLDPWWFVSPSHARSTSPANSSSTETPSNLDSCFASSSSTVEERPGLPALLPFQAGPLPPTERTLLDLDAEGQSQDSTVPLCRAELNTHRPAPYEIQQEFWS
- condition_details: at 1 µM

Entry under test: "O=C(c1cc2cc(O)ccc2[nH]1)c1cc2cc(O)ccc2[nH]1" . Its residual activity was 16%

Entry under test: "O=C(Nc1nc2ccccc2n1CCN1CCOCC1)c1cccc([N+](=O)[O-])c1" . Its residual activity was 77%

Entry under test: "O=C(CCCc1ccc(-c2ccccc2F)cc1)Nc1ccc(O)cc1" . Its residual activity was 91%

Entry under test: "O=C1NC(=O)C(c2cn(CCCO)c3ncccc23)=C1c1cnccn1" . Its residual activity was 75%

Entry under test: O=C(NC(NC(=S)Nc1ccc(F)c([N+](=O)[O-])c1)C(Cl)(Cl)Cl)C(c1ccccc1)c1ccccc1 (stereo unspecified) . Its residual activity was 102%

Entry under test: CSc1nc(-c2ccc(F)cc2)c(-c2ccnc(NC(C)c3ccccc3)c2)[nH]1 (stereo unspecified) . Its residual activity was 99%

Entry under test: "NC(=O)Nc1sc(-c2ccc(F)cc2)cc1C(N)=O" . Its residual activity was 9%

Entry under test: "O=C1Cc2c([nH]c3ccc(Br)cc23)-c2ccccc2N1" . Its residual activity was 22%

Entry under test: "O=C(Nc1ccc(Cl)cc1)c1ccccc1NCc1ccncc1" . Its residual activity was 99%

Entry under test: "CC(C)(C)c1nc2c3ccc(F)cc3c3c(=O)[nH]ccc3c2[nH]1" . Its residual activity was 9%

Entry under test: "CC(C)N(CCC(=O)c1ccc2ccccc2c1)Cc1ccccc1" . Its residual activity was 86%

---

- target_desc: Tyrosine-protein kinase BTK (Homo sapiens) (UniProt Q06187)
- Sequence (Q06187 whole entry): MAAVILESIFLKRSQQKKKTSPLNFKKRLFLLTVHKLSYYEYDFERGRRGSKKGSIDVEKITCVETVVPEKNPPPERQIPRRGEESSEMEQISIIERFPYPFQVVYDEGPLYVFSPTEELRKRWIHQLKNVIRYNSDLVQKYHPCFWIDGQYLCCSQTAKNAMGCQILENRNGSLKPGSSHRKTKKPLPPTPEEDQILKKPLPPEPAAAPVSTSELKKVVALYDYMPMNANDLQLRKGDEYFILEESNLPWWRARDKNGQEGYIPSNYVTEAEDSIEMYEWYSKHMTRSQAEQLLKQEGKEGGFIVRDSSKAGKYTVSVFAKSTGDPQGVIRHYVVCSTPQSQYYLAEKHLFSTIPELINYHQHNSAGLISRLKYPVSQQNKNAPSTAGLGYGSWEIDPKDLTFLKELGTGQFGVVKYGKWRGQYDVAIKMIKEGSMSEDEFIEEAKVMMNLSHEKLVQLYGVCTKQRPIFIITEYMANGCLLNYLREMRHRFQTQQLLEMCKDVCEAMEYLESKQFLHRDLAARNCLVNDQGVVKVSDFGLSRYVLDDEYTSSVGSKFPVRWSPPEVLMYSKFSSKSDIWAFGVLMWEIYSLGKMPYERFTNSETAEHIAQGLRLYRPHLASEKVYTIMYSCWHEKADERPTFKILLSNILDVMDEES
- condition_details: at 10 µM
What residual activity was measured for each of the following?

Entry under test: "Nc1ncnc2c1c(-c1ccc(Oc3ccccc3)cc1)cn2C1CCCC1" . Its residual activity was 1%

Entry under test: "COc1cc2c(cc1OC)-c1n[nH]c(Nc3cccc(F)c3)c1C2" . Its residual activity was 4%

Entry under test: "CN([C@@H](Cc1ccc(OS(=O)(=O)c2cccc3cnccc23)cc1)C(=O)N1CCN(c2ccccc2)CC1)S(=O)(=O)c1cccc2cnccc12" . Its residual activity was 86%

Entry under test: "NC(=O)Nc1sc(-c2ccc(F)cc2)cc1C(N)=O" . Its residual activity was 1%

Entry under test: "CN(C)S(=O)(=O)c1ccc2c(c1)/C(=C/c1cc3c([nH]1)CCCC3)C(=O)N2" . Its residual activity was 50%

---

- target_desc: Tyrosine-protein kinase Lck (Homo sapiens) (UniProt P06239)
- Sequence (P06239 2-509 limits assumed): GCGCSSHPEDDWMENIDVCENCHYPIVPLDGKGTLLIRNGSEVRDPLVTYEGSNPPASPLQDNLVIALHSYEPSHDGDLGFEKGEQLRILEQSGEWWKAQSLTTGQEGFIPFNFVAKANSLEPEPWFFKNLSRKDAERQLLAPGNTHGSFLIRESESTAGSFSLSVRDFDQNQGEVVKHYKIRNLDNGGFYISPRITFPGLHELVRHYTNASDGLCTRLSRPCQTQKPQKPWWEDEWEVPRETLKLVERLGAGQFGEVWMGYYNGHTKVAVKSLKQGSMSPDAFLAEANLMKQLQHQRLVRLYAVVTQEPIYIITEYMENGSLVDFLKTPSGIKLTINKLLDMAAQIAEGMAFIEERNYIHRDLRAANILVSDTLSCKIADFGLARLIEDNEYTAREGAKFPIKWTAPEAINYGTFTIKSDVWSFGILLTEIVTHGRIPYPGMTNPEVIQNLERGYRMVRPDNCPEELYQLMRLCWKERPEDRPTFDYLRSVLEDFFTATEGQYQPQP
- condition_details: at 10 µM
recorded_metric: residual activity

Log: Tyrosine-protein kinase Lck (Homo sapiens) (UniProt P06239), compound "O=C1C(Cl)=C(N2C(=O)CCC2=O)C(=O)c2ccccc21" , residual activity = 93%

Log: Tyrosine-protein kinase Lck (Homo sapiens) (UniProt P06239), compound "CC(C)c1nn(-c2c(Cl)cccc2Cl)c2nc(Cc3ccc(OCCO)cc3)[nH]c(=O)c12" , residual activity = 88%

Log: Tyrosine-protein kinase Lck (Homo sapiens) (UniProt P06239), compound "O=C1NC(=O)C(c2c[nH]c3ccccc23)=C1c1c[nH]c2ccccc12" , residual activity = 41%

---

- target_desc: Angiopoietin-1 receptor (Homo sapiens) (UniProt Q02763)
- Sequence (Q02763 whole entry): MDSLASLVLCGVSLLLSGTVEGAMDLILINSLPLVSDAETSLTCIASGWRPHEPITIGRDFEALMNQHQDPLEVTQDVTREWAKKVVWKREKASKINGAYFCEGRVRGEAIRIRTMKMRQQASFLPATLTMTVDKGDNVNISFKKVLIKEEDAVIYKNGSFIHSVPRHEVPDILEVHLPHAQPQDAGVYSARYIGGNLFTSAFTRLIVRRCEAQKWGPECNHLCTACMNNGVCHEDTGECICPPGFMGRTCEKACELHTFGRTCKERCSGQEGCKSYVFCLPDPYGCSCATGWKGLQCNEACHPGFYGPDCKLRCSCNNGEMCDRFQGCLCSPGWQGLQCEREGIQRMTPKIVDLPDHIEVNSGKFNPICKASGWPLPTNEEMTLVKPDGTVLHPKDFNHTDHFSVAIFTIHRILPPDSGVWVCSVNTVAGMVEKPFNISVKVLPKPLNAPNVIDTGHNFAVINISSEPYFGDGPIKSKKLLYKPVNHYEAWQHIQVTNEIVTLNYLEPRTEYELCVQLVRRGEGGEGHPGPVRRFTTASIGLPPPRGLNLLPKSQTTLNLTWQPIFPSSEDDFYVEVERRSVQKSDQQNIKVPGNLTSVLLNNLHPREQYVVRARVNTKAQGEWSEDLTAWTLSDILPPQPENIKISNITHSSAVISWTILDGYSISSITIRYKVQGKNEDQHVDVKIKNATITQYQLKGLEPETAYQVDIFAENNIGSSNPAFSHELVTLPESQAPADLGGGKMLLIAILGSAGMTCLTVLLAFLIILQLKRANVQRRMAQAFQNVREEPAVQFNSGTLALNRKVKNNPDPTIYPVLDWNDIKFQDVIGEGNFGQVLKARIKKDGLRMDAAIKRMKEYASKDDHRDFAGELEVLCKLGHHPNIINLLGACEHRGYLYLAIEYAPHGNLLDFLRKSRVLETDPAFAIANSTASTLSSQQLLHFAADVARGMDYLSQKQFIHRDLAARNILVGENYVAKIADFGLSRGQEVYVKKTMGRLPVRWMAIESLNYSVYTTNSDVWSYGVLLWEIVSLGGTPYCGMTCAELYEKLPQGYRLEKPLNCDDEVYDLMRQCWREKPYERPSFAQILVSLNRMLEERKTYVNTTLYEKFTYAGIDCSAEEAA
- condition_details: at 1 µM
Rule: residual activity under 80% gives NO, otherwise YES.

-- ask Confirm if residual activity reported for the molecule "Nc1ncnc2c1c(-c1ccc(Oc3ccccc3)cc1)cn2C1CCCC1" is 80% or above.
-- reply NO

-- ask Confirm if residual activity reported for the molecule "Nc1ncnc2[nH]nc(Nc3ccc(F)cc3)c12" is 80% or above.
-- reply YES

-- ask Confirm if residual activity reported for the molecule "O=C1Nc2ccc(Cl)cc2/C1=C/c1cc(Cl)c(O)c(Cl)c1" is 80% or above.
-- reply NO

---

What residual activity was measured for each of the following?
- target_desc: Ephrin type-A receptor 3 (Homo sapiens) (UniProt P29320)
- Sequence (P29320 whole entry): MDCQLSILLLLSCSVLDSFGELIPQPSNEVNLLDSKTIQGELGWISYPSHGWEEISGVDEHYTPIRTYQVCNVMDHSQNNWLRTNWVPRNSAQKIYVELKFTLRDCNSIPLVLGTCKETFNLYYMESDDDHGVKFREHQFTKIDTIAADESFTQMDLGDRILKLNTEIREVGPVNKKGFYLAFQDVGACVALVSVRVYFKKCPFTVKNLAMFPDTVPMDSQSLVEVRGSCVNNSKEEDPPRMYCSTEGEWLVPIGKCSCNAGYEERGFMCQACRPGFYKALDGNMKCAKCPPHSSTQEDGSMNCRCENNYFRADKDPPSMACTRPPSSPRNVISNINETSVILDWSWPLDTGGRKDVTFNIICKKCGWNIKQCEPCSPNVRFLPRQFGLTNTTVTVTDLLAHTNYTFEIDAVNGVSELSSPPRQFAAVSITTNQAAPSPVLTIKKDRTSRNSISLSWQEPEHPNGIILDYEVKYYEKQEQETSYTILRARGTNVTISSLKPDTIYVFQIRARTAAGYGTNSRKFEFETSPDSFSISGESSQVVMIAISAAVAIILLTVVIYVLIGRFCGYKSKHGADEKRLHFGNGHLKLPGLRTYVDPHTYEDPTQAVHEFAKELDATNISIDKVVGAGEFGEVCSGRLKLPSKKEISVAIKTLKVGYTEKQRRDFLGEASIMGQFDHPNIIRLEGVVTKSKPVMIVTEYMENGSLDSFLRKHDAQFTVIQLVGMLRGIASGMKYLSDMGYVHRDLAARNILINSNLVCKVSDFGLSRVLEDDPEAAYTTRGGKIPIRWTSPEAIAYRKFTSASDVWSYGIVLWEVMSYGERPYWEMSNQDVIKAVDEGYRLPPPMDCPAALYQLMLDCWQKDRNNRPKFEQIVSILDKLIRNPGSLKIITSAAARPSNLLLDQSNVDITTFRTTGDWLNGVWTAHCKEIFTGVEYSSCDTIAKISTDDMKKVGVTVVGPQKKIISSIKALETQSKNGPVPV
- condition_details: at 10 µM
Quick reminder: number only, in %, skip the unit.

Entry under test: "CCOC(=O)c1c(C)[nH]c(/C=C2\C(=O)Nc3ccccc32)c1C" . Its residual activity was 99

Entry under test: "Cn1sc(=O)n(Cc2ccccc2)c1=O" . Its residual activity was 86

Entry under test: "COc1cc2ncnc(Nc3cccc(Cl)c3)c2cc1OC" . Its residual activity was 42

Entry under test: "Cc1cc(C)c(/C=C2\C(=O)Nc3ccccc32)[nH]1" . Its residual activity was 80

Entry under test: "Nc1n[nH]c2nc3ccccc3nc12" . Its residual activity was 98

Entry under test: "CCN(CC)CCNC(=O)c1c(C)[nH]c(/C=C2\C(=O)Nc3ccc(Cl)cc32)c1C" . Its residual activity was 47

---

- target_desc: Protein kinase C epsilon type (Homo sapiens)
- Sequence (whole entry): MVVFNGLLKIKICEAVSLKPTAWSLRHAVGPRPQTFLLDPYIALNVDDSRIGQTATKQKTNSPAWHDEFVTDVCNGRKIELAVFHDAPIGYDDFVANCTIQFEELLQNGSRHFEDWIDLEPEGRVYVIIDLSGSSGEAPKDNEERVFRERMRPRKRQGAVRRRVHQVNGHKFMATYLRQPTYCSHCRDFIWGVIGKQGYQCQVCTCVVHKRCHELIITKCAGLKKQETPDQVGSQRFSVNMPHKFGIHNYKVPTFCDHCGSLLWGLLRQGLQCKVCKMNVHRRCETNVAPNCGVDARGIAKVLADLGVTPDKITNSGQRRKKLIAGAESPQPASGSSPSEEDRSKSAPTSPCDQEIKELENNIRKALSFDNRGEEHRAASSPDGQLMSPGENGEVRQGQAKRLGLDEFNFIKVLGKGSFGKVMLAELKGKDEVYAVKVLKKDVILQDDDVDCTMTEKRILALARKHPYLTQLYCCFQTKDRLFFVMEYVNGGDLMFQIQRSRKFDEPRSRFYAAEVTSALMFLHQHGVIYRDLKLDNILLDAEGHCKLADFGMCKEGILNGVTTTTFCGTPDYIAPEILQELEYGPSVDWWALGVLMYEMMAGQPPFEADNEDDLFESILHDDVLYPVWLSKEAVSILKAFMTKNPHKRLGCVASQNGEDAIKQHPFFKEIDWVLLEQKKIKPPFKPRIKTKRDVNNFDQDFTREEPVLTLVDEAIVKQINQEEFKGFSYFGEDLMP
- condition_details: at 1 µM
recorded_metric: residual activity
Reply with a number, then the unit it belongs to.

Entry under test: "COc1ccc2c(c1)c(C1=C(c3c[nH]c4ccccc34)C(=O)NC1=O)cn2CCCN(C)C" . Its residual activity was 3%

Entry under test: "Nc1ncnc2[nH]nc(Nc3ccc(F)cc3)c12" . Its residual activity was 123%

Entry under test: "CC(C)[C@H](CO)Nc1nc(Nc2cc(N)cc(Cl)c2)c2ncn(C(C)C)c2n1" . Its residual activity was 100%

Entry under test: CSc1nc(-c2ccc(F)cc2)c(-c2ccnc(NC(C)c3ccccc3)c2)[nH]1 (configuration not stated) . Its residual activity was 125%

Entry under test: "COc1ccc(-c2cnc3c(-c4ccsc4)cnn3c2)cc1" . Its residual activity was 86%

Entry under test: "O=C1NC(=O)c2c1c1c3ccccc3[nH]c1n1cncc21" . Its residual activity was 105%

Entry under test: "Nc1ncnc2c1c(-c1ccc(Oc3ccccc3)cc1)cn2C1CCCC1" . Its residual activity was 84%

Entry under test: "NC(=O)Nc1sc(-c2ccc(F)cc2)cc1C(N)=O" . Its residual activity was 102%

Entry under test: "CC(C)c1nn(-c2c(Cl)cccc2Cl)c2nc(Cc3ccc(OCCO)cc3)[nH]c(=O)c12" . Its residual activity was 99%

Entry under test: "O=c1cc(N2CCOCC2)oc2c1ccc1ccccc12" . Its residual activity was 87%

Entry under test: "Cc1cc(C)c(/C=C2\C(=O)Nc3ccccc32)[nH]1" . Its residual activity was 82%

Entry under test: "COc1ccc(Cl)cc1NC(=O)Nc1cc(C)nc2ccccc12" . Its residual activity was 82%

Entry under test: "O=C1Nc2ccc(Cl)cc2/C1=C/c1cc(Cl)c(O)c(Cl)c1" . Its residual activity was 87%

Entry under test: "CCCC(=O)Oc1ccc2[nH]c(C(=O)c3cc4ccccc4[nH]3)cc2c1" . Its residual activity was 85%

Entry under test: "O=C1NC(=O)C(c2cn(CCCn3ccnc3)c3ccccc23)=C1Nc1ccccc1" . Its residual activity was 21%

Entry under test: "Cn1sc(=O)n(Cc2ccccc2)c1=O" . Its residual activity was 88%

Entry under test: "NCCNc1ncc(C(N)=O)c(Nc2cccc(C(F)(F)F)c2)n1" . Its residual activity was 77%
